Experiment: NCI Yeast Anticancer Drug Screen. Data for the rad50 strain (AID 155)
Conditions: S. cerevisiae rad50 strain growth inhibition; at 50.0 µM (retest, dose inferred, filed as 5.0)
Compounds without any hit were thinned out: in the full panel of roughly 79,000, 15% have a hit. Activity calls are given as the source filed them. Rule as the data show it: active = growth inhibition above about 70%; inactive = the rest.
Outcome (select one): Yes = active, No = inactive

Can you look up the reported call for CC(=O)C1Cc2ccccc2C1=O (stereo not drawn) for me? Yes

Lab log entry: N=C1C=C(N)C(=O)c2ccccc21 — outcome as called in the assay? Yes

Called result for CC(C)c1cc([N+](=O)[O-])c(O)c([N+](=O)[O-])c1 Yes

For N#CC(=C1SCS1)[N+](=O)[O-] , what call appears in the results of this test? Yes

I'd appreciate the recorded outcome for C/C=C/c1cc2c(c(=O)o1)C(=O)[C@@H](O)[C@H](C)O2 from this test. No

What did the test return for CCCC(=O)c1ccc([N+](=O)[O-])o1 ? Yes

How did this test come out for CN1CCC(CN2c3ccccc3Sc3ccccc32)C1 (stereo not drawn) ? No

Dear colleague, could you share the recorded outcome for CCCCC(CC)CNC(=O)CI (stereo not drawn) when you have a moment? No

Returns: the outcome recorded for NNc1cccc([N+](=O)[O-])c1 in this assay. No

Test call for this compound, please: CCC(CC)(c1ccccc1)C(O)c1ccccc1 (stereo not drawn) Yes

// param item: O=C1C=CC(=O)C2=C1CC=CC2 ; yields the recorded call Yes

What did this assay record as the result for S=C=Nc1ccc(N2CCOCC2)cc1 ? Yes

Outcome logged for COC1CC(C)C(OC)c2cc(O)cc(c2O)NC(=O)/C(C)=C/C=C\C(C)C(OC(N)=O)/C(C)=C\C(C)C1OC (stereo not drawn) in this assay: Yes
